- study.target: Voltage-gated inwardly rectifying potassium channel KCNH2 (Homo sapiens)
- Sequence (Q12809 whole entry): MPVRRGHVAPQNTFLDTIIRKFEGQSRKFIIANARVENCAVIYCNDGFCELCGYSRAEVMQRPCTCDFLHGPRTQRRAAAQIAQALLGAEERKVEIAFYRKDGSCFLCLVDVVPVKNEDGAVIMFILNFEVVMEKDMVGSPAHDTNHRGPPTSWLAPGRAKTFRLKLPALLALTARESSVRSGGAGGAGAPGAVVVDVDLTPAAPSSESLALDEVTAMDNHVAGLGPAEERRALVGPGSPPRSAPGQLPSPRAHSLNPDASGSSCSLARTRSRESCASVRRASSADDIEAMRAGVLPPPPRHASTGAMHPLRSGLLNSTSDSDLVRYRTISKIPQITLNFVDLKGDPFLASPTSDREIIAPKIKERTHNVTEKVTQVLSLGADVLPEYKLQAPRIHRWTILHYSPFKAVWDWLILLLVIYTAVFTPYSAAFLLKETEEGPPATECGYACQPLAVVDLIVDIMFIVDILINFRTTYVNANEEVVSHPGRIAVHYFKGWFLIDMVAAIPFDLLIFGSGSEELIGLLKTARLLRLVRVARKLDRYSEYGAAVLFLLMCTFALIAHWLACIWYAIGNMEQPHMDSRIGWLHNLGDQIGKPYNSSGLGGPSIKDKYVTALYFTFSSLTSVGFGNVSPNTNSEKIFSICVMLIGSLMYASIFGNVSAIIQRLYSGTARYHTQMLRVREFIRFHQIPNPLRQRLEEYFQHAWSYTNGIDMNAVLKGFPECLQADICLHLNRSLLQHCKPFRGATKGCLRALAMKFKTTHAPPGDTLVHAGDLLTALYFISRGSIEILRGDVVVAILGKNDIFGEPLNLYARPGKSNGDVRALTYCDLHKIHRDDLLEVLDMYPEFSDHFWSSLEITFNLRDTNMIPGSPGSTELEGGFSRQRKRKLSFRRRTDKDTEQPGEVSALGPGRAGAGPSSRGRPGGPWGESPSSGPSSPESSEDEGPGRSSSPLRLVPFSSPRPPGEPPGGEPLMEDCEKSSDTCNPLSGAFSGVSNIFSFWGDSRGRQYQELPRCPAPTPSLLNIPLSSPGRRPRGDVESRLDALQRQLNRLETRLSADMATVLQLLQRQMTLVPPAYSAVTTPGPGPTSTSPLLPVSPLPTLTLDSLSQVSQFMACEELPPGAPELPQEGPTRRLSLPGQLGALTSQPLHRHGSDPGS
- assay.name: OSM: hERG, IC50 uM (Essen Bioscience): IonWorks patch clamp electrophysiology. 8 point concentration-response curves were generated using 3-fold serial dilutions from the maximum final assay concentration of 33 uM.
readout.type: IC50

> print(dat)
                        structure.as.smiles  readout.type  measurement
1    Cc1cc(C(=O)OCC(N)=O)c(C)n1-c1ccc(F)cc1          IC50      > 33 µM
2  Cc1cc(/C=C2\SC(=Nc3ccccc3)NC2=O)c(C)n1-c1ccccc1          IC50      > 33 µM

---

- assay.name: OSM: Microsomal stability: 0.5 uM substrate, 0.4 mg/mL protein, NADPH cofactor. Analysed by LC/MS. Degradation rate classification.
- Assay type: ADME, Microsome
- condition.parameters: human, microsomes
readout.type: Relative metabolic rate

> print(dat)
                        structure.as.smiles  measurement
1  Cc1cc(/C=C2\S/C(=N\c3ccccc3)NC2=O)c(C)n1-c1ccc(F)cc1     Moderate
2    Cc1cc(C(=O)OCC(N)=O)c(C)n1-c1ccc(F)cc1     Moderate
3  Cc1cc(/C=C2\S/C(=N\c3ccccc3)NC2=O)c(C)n1-c1cc(C(F)(F)F)cc(C(F)(F)F)c1          Low

---

Recorded measurements of cytotoxicity at 120 µM, one per entry
- assay.name: OSM: HEK293 cytotoxicity assay. Duplicate point single experiment at 120 uM. Avery Group, Griffith.
- Type: toxicity, cell-based
- condition.parameters: human, HEK293 cells; read-out: Inhibition
readout.type: cytotoxicity at 120 µM (%)

> print(dat)
                                    compound            readout.type  units.label  measurement
 1            CCOC(=O)c1cc(C)n(-c2ccccc2)c1C  cytotoxicity at 120 µM            %            0
 2              Cc1cc(C=O)c(C)n1-c1ccc(F)cc1  cytotoxicity at 120 µM            %           25
 3              Cc1cc(C(=O)O)c(C)n1-c1ccccc1  cytotoxicity at 120 µM            %            0
 4         CCOC(=O)c1cc(C)n(-c2ccc(C)cc2)c1C  cytotoxicity at 120 µM            %            0
 5                 Cc1cc(C=O)c(C)n1-c1ccccc1  cytotoxicity at 120 µM            %           25
 6  CC(=O)N(C1=NC(=O)/C(=C/c2cc(C)n(-c3ccc(F)cc3)c2C)S1)c1ccccc1  cytotoxicity at 120 µM            %           75
 7  CCN(CC)CCCC(C)Nc1ccnc2cc(Cl)ccc12 (stereo unspecified) [CHLOROQUINE]  cytotoxicity at 120 µM            %          100
 8  CCOC(=O)c1cc(C)n(-c2ccc(C(F)(F)F)cc2)c1C  cytotoxicity at 120 µM            %           75
 9  C[C@@H]1CC[C@H]2[C@@H](C)C(=O)O[C@@H]3O[C@@]4(C)CC[C@@H]1[C@]32OO4 [ARTEMISININ]  cytotoxicity at 120 µM            %           25
10    Cc1cc(C(=O)O)c(C)n1-c1ccc(C(F)(F)F)cc1  cytotoxicity at 120 µM            %            0
11    Cc1cc(C(=O)OCC(N)=O)c(C)n1-c1ccc(F)cc1  cytotoxicity at 120 µM            %           20
12         CCOC(=O)c1cc(C)n(-c2ccc(F)cc2)c1C  cytotoxicity at 120 µM            %           25
13           Cc1ccc(-n2c(C)cc(C(=O)O)c2C)cc1  cytotoxicity at 120 µM            %            0
14  Cc1cc(/C=C2\S/C(=N\c3ccccc3)NC2=O)c(C)n1-c1ccc(F)cc1  cytotoxicity at 120 µM            %           25
15  Cc1cc(C(=O)OCC(=O)Nc2c(C)n(C)n(-c3ccccc3)c2=O)c(C)n1-c1ccc(F)cc1  cytotoxicity at 120 µM            %           20
16           Cc1cc(C(=O)O)c(C)n1-c1ccc(F)cc1  cytotoxicity at 120 µM            %           20

---

Recorded measurements of microsomal CLint at 0.5 µM, one per entry
- assay.name: OSM: Microsomal stability: 0.5 uM substrate, 0.4 mg/mL protein, NADPH cofactor). Analysed by LC/MS. In vitro CLint (uL/min/mg protein).
- Assay type: ADME, Microsome
- condition.parameters: human, microsomes
readout.type: microsomal CLint at 0.5 µM (µL/min/mg)

> print(dat)
                        structure.as.smiles  comparator  measurement
1  Cc1cc(C(=O)OCC(=O)Nc2c(C)n(C)n(-c3ccccc3)c2=O)c(C)n1-c1ccc(F)cc1           =           60
2  Cc1cc(/C=C2\S/C(=N\c3ccccc3)NC2=O)c(C)n1-c1cc(C(F)(F)F)cc(C(F)(F)F)c1           <            7
3    Cc1cc(C(=O)OCC(N)=O)c(C)n1-c1ccc(F)cc1           =           29
4  Cc1cc(/C=C2\S/C(=N\c3ccccc3)N(C3CCCC3)C2=O)c(C)n1-c1ccc(C(F)(F)F)cc1           =           14
5  Cc1cc(/C=C2\S/C(=N\c3ccccc3)NC2=O)c(C)n1-c1ccc(C(F)(F)F)cc1           <            7
6  Cc1ccc(-n2c(C)cc(/C=C3\S/C(=N\c4ccccc4)NC3=O)c2C)cc1           <            7
7  Cc1cc(/C=C2\S/C(=N\c3ccccc3)NC2=O)c(C)n1-c1ccc(F)cc1           =           15

---

- assay.name: OSM: Microsomal stability: 0.5 uM substrate, 0.4 mg/mL protein, NADPH cofactor. Analysed by LC/MS. Degradation half life (min).
- Format: ADME, Microsome
- condition.parameters: human, microsomes
Recorded measurements of half-life at 0.5 µM, one per entry
readout.type: half-life at 0.5 µM

> print(dat)
                        structure.as.smiles  measurement
1  Cc1cc(C(=O)OCC(=O)Nc2c(C)n(C)n(-c3ccccc3)c2=O)c(C)n1-c1ccc(F)cc1      0.483 h
2  Cc1cc(/C=C2\S/C(=N\c3ccccc3)N(C3CCCC3)C2=O)c(C)n1-c1ccc(C(F)(F)F)cc1       2.02 h
3    Cc1cc(C(=O)OCC(N)=O)c(C)n1-c1ccc(F)cc1      0.983 h
4  Cc1cc(/C=C2\S/C(=N\c3ccccc3)NC2=O)c(C)n1-c1cc(C(F)(F)F)cc(C(F)(F)F)c1     > 4.17 h
5  Cc1cc(/C=C2\S/C(=N\c3ccccc3)NC2=O)c(C)n1-c1ccc(C(F)(F)F)cc1     > 4.17 h
6  Cc1cc(/C=C2\S/C(=N\c3ccccc3)NC2=O)c(C)n1-c1ccc(F)cc1       1.53 h
7  Cc1ccc(-n2c(C)cc(/C=C3\S/C(=N\c4ccccc4)NC3=O)c2C)cc1     > 4.08 h

---

- assay.name: OSM: Microsomal stability: 0.5 uM substrate, 0.4 mg/mL protein, NADPH cofactor. Analysed by LC/MS. Degradation rate classification.
- Assay type: ADME, Microsome
- condition.parameters: human, microsomes
readout.type: Relative metabolic rate

> print(dat)
                        structure.as.smiles             readout.type  measurement
1  Cc1cc(/C=C2\S/C(=N\c3ccccc3)NC2=O)c(C)n1-c1ccc(C(F)(F)F)cc1  Relative metabolic rate          Low
2  Cc1cc(/C=C2\S/C(=N\c3ccccc3)N(C3CCCC3)C2=O)c(C)n1-c1ccc(C(F)(F)F)cc1  Relative metabolic rate     Moderate
3  Cc1ccc(-n2c(C)cc(/C=C3\S/C(=N\c4ccccc4)NC3=O)c2C)cc1  Relative metabolic rate          Low
4  Cc1cc(C(=O)OCC(=O)Nc2c(C)n(C)n(-c3ccccc3)c2=O)c(C)n1-c1ccc(F)cc1  Relative metabolic rate     Moderate

---

- Tested on: Plasmodium falciparum K1
- assay.name: OSM: CSIR assay K1: Compounds were tested for inhibition of Plasmodium falciparum growth using a SYBR green I fluorescence based assay.
- Type: functional, organism-based
pIC50: −log10 of the molar value.
Recorded measurements of pIC50, one per entry
readout.type: pIC50

> print(dat)
                                   molecule  readout.type  comparator  measurement
1    Cc1cc(C(=O)OCC(N)=O)c(C)n1-c1ccc(F)cc1         pIC50           =         6.19
2  CCN(CC)CCCC(C)Nc1ccnc2cc(Cl)ccc12 (stereo not drawn) [CHLOROQUINE]         pIC50           =         6.63
3  Cc1cc(/C=C2\S/C(=N\c3ccccc3)N(c3ccccc3)C2=O)c(C)n1-c1cccc(F)c1         pIC50           <         5.30

meta.source: ChEMBL document CHEMBL2113921
